assay: Cytotoxicity against human U87MG cells after 72 hrs by MTT assay; assay type: functional, cell-based, U-87MG ATCC; details: U-87 MG
Overview of recorded IC50 for various compounds

smiles | IC50 [nM]
COc1cc2c(Oc3ccc(N/C=C4\C(=O)NC(=O)N(c5ccc(F)c(Cl)c5)C4=O)cc3F)ccnc2cc1OCCCN1CCCCC1 | 1000
COc1cc2c(Oc3ccc(N/C=C4\C(=O)NC(=O)N(c5c(C)cccc5C)C4=O)cc3F)ccnc2cc1OCCCN1CCOCC1 | 7100
COc1cc2c(Oc3ccc(N/C=C4\C(=O)NC(=O)N(c5ccccc5)C4=O)cc3F)ccnc2cc1OCCCN1CCOCC1 | 4800
COc1cc2c(Oc3ccc(N/C=C4\C(=O)NC(=O)N(c5ccc(F)c(Cl)c5)C4=O)cc3F)ccnc2cc1OCCCN1CCOCC1 | 580
